Target: Integrase (Human immunodeficiency virus 1)
Assay: Inhibitory concentration against human immuno deficiency virus type 1 integrase (Strand Transfer)
reportedEndpoint: IC50

Incoming: What does the record list as IC50 for Cc1ccc(/C=C2\SC(=S)N(CC(=O)Nc3ccc([N+](=O)[O-])cc3O)C2=O)cc1 ?
Outgoing: > 100 µM

Incoming: Next entry: O=C(NC(=S)Nc1ccc(O)c(C(=O)O)c1)c1ccccc1
Outgoing: > 100 µM

Incoming: Next entry: CC(/C=C1\SC(=S)N(CCC(=O)Nc2ccc(O)c(C(=O)O)c2)C1=O)=C\c1ccccc1
Outgoing: 23 µM

Incoming: Next entry: O=C(CN1C(=O)/C(=C/c2ccccc2Cl)SC1=S)Nc1ccc([N+](=O)[O-])cc1O
Outgoing: > 100 µM

Incoming: Next entry: COc1ccc(/C=C2\SC(=S)N(CCC(=O)Nc3cccc(C(=O)O)c3)C2=O)cc1
Outgoing: > 100 µM

Incoming: Next entry: O=C(O)c1ccc(S(=O)(=O)c2ccc3c(c2)C(=O)N(c2ccc(O)c(C(=O)O)c2)C3=O)cc1
Outgoing: 44 µM

Incoming: Next entry: Cc1ccc(/C=C2\SC(=S)N(CCC(=O)Nc3cccc(C(=O)O)c3)C2=O)cc1
Outgoing: > 100 µM

Incoming: Next entry: COc1cc(/C=C2\SC(=S)N(CC(=O)Nc3cc(Cl)ccc3O)C2=O)cc(OC)c1OC
Outgoing: 17 µM

Incoming: Next entry: CCOc1ccc(/C=C2\SC(=S)N(CCC(=O)Nc3cccc(C(=O)O)c3)C2=O)cc1
Outgoing: > 100 µM
